Assay: Henry solubility constant Hcp at 298.15 K (mol/(m3 Pa))
Settings: reference: Kondoh and Nakajima (1997)
Some compounds, each annotated with its measured Henry solubility constant Hcp.
MEASURED QUANTITY: Henry solubility constant Hcp

INSERT INTO results (compound_string, recorded_value) VALUES
  ('Cc1ccc(C(C)C)cc1', 0.001),
  ('CC(C)c1ccccc1', 0.001),
  ('Brc1ccccc1', 0.0049);
